- assay_target: rat CB2 receptor (rCB2) (Rattus norvegicus, UniProt Q9QZN9)
- procedure_summary: cell-based
- Assay type: cell-based
- condition_notes: agonist or inverse agonist at rCB2
experimental_endpoint: +/− RCB2

{"smi": "CNC(=O)[C@@H](NC(=O)c1nc(/C=C/CN2CCCCC2)n2c1CN(C)CCC2)C(C)(C)C", "assay_target": "rat CB2 receptor (rCB2) (Rattus norvegicus, UniProt Q9QZN9)", "experimental_endpoint": "+/− RCB2", "reading": "+"}
{"smi": "CN1CCCn2c(-c3ccc(Cl)c(F)c3)nc(C(=O)N[C@H](C(N)=O)C(C)(C)C)c2C1", "assay_target": "rat CB2 receptor (rCB2) (Rattus norvegicus, UniProt Q9QZN9)", "experimental_endpoint": "+/− RCB2", "reading": "+"}
{"smi": "CNC(=O)[C@@H](NC(=O)c1nc(C2=CCNCC2)n2c1CN(C)CC2)C(C)(C)C", "assay_target": "rat CB2 receptor (rCB2) (Rattus norvegicus, UniProt Q9QZN9)", "experimental_endpoint": "+/− RCB2", "reading": "−"}
{"smi": "CNC(=O)[C@H](CC(C)(C)C)NC(=O)c1nc(-c2ccc(F)cc2)n2c1CN(C)CCC2", "assay_target": "rat CB2 receptor (rCB2) (Rattus norvegicus, UniProt Q9QZN9)", "experimental_endpoint": "+/− RCB2", "reading": "+"}

###

- assay_target: UniProtKB Q9QZN9
- procedure_summary: cell-based
- Assay type: cell-based
- condition_notes: agonist or inverse agonist at rCB2
experimental_endpoint: +/− RCB2

Below, each entry is followed by its recorded +/− RCB2 result.
{"compound": "CNC(=O)[C@@H](NC(=O)c1nc(-c2ccccc2)n2c1CN(S(=O)(=O)c1cccc(F)c1)CC2)C(C)(C)C", "+/− RCB2": "−"}
{"compound": "CC(C)(C)C(=O)N1CCn2c(-c3ccccc3)nc(C(=O)NC3CCCCC3)c2C1", "+/− RCB2": "−"}
{"compound": "CC(=O)N1CCn2c(-c3ccccc3)nc(C(=O)NC3CCCCC3)c2C1", "+/− RCB2": "−"}
{"compound": "CCS(=O)(=O)N1CCn2c(-c3ccccc3)nc(C(=O)NC3C4(C)CCC(C4)C3(C)C)c2C1 (stereo not shown)", "+/− RCB2": "−"}
{"compound": "C[C@@H](NC(=O)c1nc(-c2ccccc2)n2c1CN(CCO)CC2)C1CCCCC1", "+/− RCB2": "−"}

Sure, the documented +/− RCB2 for CNC(=O)[C@@H](NC(=O)c1nc(-c2ccc(C)o2)n2c1CN(C)CCC2)C(C)(C)C is −

Memo: CC(C)(C)[C@@H](CO)NC(=O)c1nc(-c2ccccc2)n2c1CN(S(=O)(=O)c1ccccc1)CC2 , reported +/− RCB2: −

Per the record, O=C(NCC1CCOCC1)c1nc(-c2ccccc2)n2c1CN(C(=O)C1CC1)CC2 has +/− RCB2 of −

get_value(item= CNC(=O)[C@@H](NC(=O)c1nc(-c2ccc(Cl)c(F)c2)n2c1CN(C)CCC2)C(C)(C)C , readout=+/− RCB2) returns +

According to the records, this compound CN1CCCn2c(-c3ccccc3)nc(C(=O)N[C@H](C(=O)NC3CC3)C(C)(C)C)c2C1 displays +/− RCB2 of +

Consider CNC(=O)[C@@H](NC(=O)c1nc(-c2cccc3ccccc23)n2c1CN(C)CCC2)C(C)(C)C . Its measured +/− RCB2 is +

compound C[C@@H](NC(=O)c1nc(-c2ccccc2)n2c1CNCC2)C1CCCCC1 , +/− RCB2 observed: −

According to the records, this compound CNC(=O)[C@@H](NC(=O)c1nc(-c2ccccc2)n2c1CN(Cc1ccco1)CC2)C(C)(C)C displays +/− RCB2 of −

Reported +/− RCB2 of CC12CCC(C1)C(C)(C)C2NC(=O)c1nc(-c2ccccc2)n2c1CN(C(=O)C1CC1)CC2 (stereo not shown) : −

Measured +/− RCB2, CNC(=O)[C@@H](NC(=O)c1nc(C2=CCCCO2)n2c1CN(C)CCC2)C(C)(C)C : +

Sure, the documented +/− RCB2 for C[C@H](NC(=O)c1nc(-c2ccccc2)n2c1CN(C(=O)c1ccccc1)CC2)c1ccccc1 is −

###

- assay_target: UniProt Q9QZN9
- procedure_summary: cell-based
- Format: cell-based
- condition_notes: agonist or inverse agonist at rCB2
experimental_endpoint: +/− RCB2

{"molecule": "CNC(=O)[C@@H](NC(=O)c1nc(-c2cc3ccccc3o2)n2c1CN(C)CCC2)C(C)(C)C [Compound 351]", "+/− RCB2": "+"}
{"molecule": "O=C(NN1CCCCC1)c1nc(-c2ccccc2)n2c1CN(CCO)CC2 [Compound 156]", "+/− RCB2": "−"}
{"molecule": "CNC(=O)[C@@H](NC(=O)c1nc(C(C)C(C)C)n2c1CN(C)CCC2)C(C)(C)C (stereo partly shown) [Compound 507]", "+/− RCB2": "+"}
{"molecule": "CC(C)C[C@H](NC(=O)c1nc(-c2cc(Cl)c(F)cc2F)n2c1CN(C)CCC2)C(N)=O [Compound 571]", "+/− RCB2": "+"}
{"molecule": "CNC(=O)[C@@H](NC(=O)c1nc(-c2ccc(F)c(OC)c2)n2c1CN(C)CCC2)C(C)(C)C [Compound 393]", "+/− RCB2": "+"}

// CC(C)CN1CCn2c(-c3ccccc3)nc(C(=O)N[C@H](CO)C(C)(C)C)c2C1 [Compound 60] : +/− RCB2 value = −

molecule CCS(=O)(=O)N1CCn2c(-c3ccccc3)nc(C(=O)N[C@H](C(=O)NC)C(C)(C)C)c2C1 [Compound 91] , +/− RCB2 observed: −

Reported +/− RCB2 ( CN1CCn2c(-c3ccc(Cl)cc3F)nc(C(=O)N3CCC(n4cc(-c5ccccc5)[nH]c4=O)CC3)c2C1 [Compound 227] ) = −

Value of measured +/− RCB2 for the entry CNC(=O)[C@@H](NC(=O)c1nc(-c2cc(F)ccc2F)n2c1CN(C)CCC2)C(C)(C)C [Compound 359] : +

Form: molecule = CNC(=O)[C@@H](NC(=O)c1nc(-c2cc(C(F)(F)F)ccc2F)n2c1CN(C)CCC2)C(C)(C)C [Compound 363] ; +/− RCB2 = −

###

- assay_target: rat CB2 receptor (rCB2) (Rattus norvegicus)
- Sequence (Q9QZN9 1-360): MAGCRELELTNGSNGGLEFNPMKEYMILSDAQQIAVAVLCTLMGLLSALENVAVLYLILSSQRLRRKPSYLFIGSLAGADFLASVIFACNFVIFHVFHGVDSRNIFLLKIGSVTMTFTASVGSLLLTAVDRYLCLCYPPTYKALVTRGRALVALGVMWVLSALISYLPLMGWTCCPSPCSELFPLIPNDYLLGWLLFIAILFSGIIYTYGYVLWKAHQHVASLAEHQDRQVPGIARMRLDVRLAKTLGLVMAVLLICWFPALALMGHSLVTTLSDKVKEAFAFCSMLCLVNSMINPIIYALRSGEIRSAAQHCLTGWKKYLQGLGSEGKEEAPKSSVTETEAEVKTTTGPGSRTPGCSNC
- procedure_summary: cell-based
- Format: cell-based
- condition_notes: agonist or inverse agonist at rCB2
experimental_endpoint: +/− RCB2

Use the examples below as a reference point.
{"smi": "CN1CCCn2c(-c3ccc(F)cc3F)nc(C(=O)N[C@H](C(=O)N(C)C)C(C)(C)C)c2C1", "reading": "+"}
{"smi": "CN1CCCn2c(-c3cc(Cl)c(F)cc3F)nc(C(=O)N[C@@H](CC(C)(C)C)C(N)=O)c2C1", "reading": "+"}
{"smi": "CNC(=O)[C@@H](NC(=O)c1nc(-c2ccccc2)n2c1CN(CC(C)C)CCC2)C(C)(C)C", "reading": "−"}
{"smi": "CC(C)(C)[C@@H](CO)NC(=O)c1nc(-c2ccc(Cl)cc2)n2c1CN(CCO)CC2", "reading": "−"}
{"smi": "Cc1nnc([C@@H](NC(=O)c2nc(-c3ccccc3)n3c2CNCC3)C(C)(C)C)o1", "reading": "+"}
{"smi": "CNC(=O)[C@@H](NC(=O)c1nc(C=C(C)C)n2c1CN(C)CCC2)C(C)(C)C", "reading": "+"}
{"smi": "CNC(=O)[C@@H](NC(=O)c1nc(-c2ccccc2)n2c1CN(C)CC2)c1ccccc1", "reading": "+"}
{"smi": "COC(=O)N1CCn2c(-c3ccccc3)nc(C(=O)NC3CCCCC3)c2C1", "reading": "−"}

Form field +/− RCB2, entry CC(C)(C)OC(=O)N1CCn2c(-c3ccccc3)nc(C(=O)Nc3ccccc3)c2C1 : −

get_value(item= CNC(=O)[C@@H](NC(=O)c1nc(-c2ccc3c(c2)OCO3)n2c1CN(C)CCC2)C(C)(C)C , readout=+/− RCB2) returns −

Short answer for CC(C)CNC(=O)[C@@H](NC(=O)c1nc(-c2ccccc2)n2c1CN(C)CCC2)C(C)(C)C : +/− RCB2 was +

+/− RCB2 measured on CNC(=O)[C@@H](NC(=O)c1nc(-c2cc(C)ccc2F)n2c1CN(C)CCC2)C(C)(C)C = +

The value of +/− RCB2 measured for the compound CN1CCCn2c(-c3ccc(Cl)c(F)c3)nc(C(=O)N[C@H](C(=O)N(C)C)C(C)(C)C)c2C1 turned out to be +

Lab note: CCc1nc(C(=O)N[C@H](C(=O)NC)C(C)(C)C)c2n1CCCN(C)C2 gave +/− RCB2 of −

The recorded +/− RCB2 for entry CNC(=O)[C@@H](NC(=O)c1nc(-c2ccc(C)cc2F)n2c1CN(C)CC2)C(C)(C)C equals −

Measured +/− RCB2, CCCCCCc1nc(C(=O)N[C@H](C(=O)NC)C(C)(C)C)c2n1CCCN(C)C2 : +
